- Tested on: MCF7-SP cells (breast cancer stem cells)
- method notes: Sphere cell viability of MCF7-SP cells (Cell-titer Glo)
- Type: cell-based
- condition notes: 192 h; sphere cell viability, culture for 8 days; read-out: MCF7-SP
pIC50: −log10 of the molar value.
For each entry below, report its pIC50 value.

CN1CCN(c2cccc(Oc3ccc(S(=O)(=O)NCCCc4c[nH]c5ccc(Cl)cc45)cc3)c2)CC1 | 5.00 to 6.00
O=S(=O)(NCCCc1c[nH]c2ccc(Cl)cc12)c1ccc(OCCCN2CCNCC2)cc1 | 5.00 to 6.00
O=S(=O)(NCCCc1c[nH]c2ccc(Cl)cc12)c1ccc(CCCCN2CCNCC2)cc1 | 5.00 to 6.00
CN1CCCN(CCCOc2ccc(S(=O)(=O)NCCCc3c[nH]c4ccc(Cl)cc34)cc2)CC1 | 5.00 to 6.00
O=S(=O)(NCCCc1c[nH]c2ccc(Cl)cc12)c1ccc(CCCCC2CCNCC2)cc1 | 5.00 to 6.00

I'm hoping you can list pIC50 for every molecule here, please.
1. O=S(=O)(NCCCc1c[nH]c2ccc(Cl)cc12)c1ccc(OCCCN2CCC(O)CC2)cc1
2. CN1CCN(CCCNc2ccc(S(=O)(=O)NCCCc3c[nH]c4ccc(Cl)cc34)cc2)CC1

Reply |
1. < 5.00
2. < 5.00

====

- Tested on: A2780-SP cells (ovarian cancer stem cells)
- method notes: Sphere cell viability of A2780-SP cells (Cell-titer Glo)
- Format: cell-based
- condition notes: 192 h; sphere cell viability, culture for 8 days; read-out: A2780-SP
Provide the reported IC50 of each item.

CN1CCN(CCCOc2ccc(S(=O)(=O)NCCCc3c[nH]c4ccc(Br)cc34)cc2)CC1 [Example 154] | < 1000 nM

For every record below, what is its IC50?
1. CN1CCN(c2cc(F)cc(Oc3ccc(S(=O)(=O)NCCCc4c[nH]c5ccc(Cl)cc45)cc3)c2)CC1 [Example 137]
2. CN1CCN(CCCNc2ccc(S(=O)(=O)NCCCc3c[nH]c4ccc(Cl)cc34)cc2)CC1 [Example 98]

Reply |
1000 to 10000 nM
1000 to 10000 nM

====

- tested target: Pin1 (Homo sapiens)
- Construct: purchased Anaspec
- Sequence (Q13526 whole entry): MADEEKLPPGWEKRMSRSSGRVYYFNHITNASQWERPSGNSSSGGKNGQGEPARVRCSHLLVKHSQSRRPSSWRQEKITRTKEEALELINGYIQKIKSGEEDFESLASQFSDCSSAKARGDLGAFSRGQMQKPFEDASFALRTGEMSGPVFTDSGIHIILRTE
- method notes: Evaluation of Pin1 enzyme inhibitory activity (Sensolyte Green Pin1 assay kit)
- Format: biochemical
- condition notes: concentration at which the Pin1 enzyme activity is inhibited; 2 hours at room temperature, fluorescence 490 nm/520 nm; read-out: Pin 1 inhibition
measured quantity: IC50

The following molecules have reported results that may help.
CN1CCN(CCCOc2ccc(S(=O)(=O)NCCCc3c[nH]c4ccc(Br)cc34)cc2)CC1 [Example 154] | < 1000 nM
CN1CCN(c2cc(Oc3ccc(S(=O)(=O)NCCCc4c[nH]c5ccc(Cl)cc45)cc3)cc(N3CCN(C)CC3)c2)CC1 [Example 130] | < 1000 nM

// each listed molecule needs a value for IC50
1. CCCCOc1ccc(S(=O)(=O)NCCCN2CCN(C(C)C)CC2)cc1 [Example 2]
2. CN1CCN(CCCOc2ccc(S(=O)(=O)NC3CCCC(c4c[nH]c5ccc(Cl)cc45)C3)cc2)CC1 (stereo not drawn) [Example 179]
3. CN1CCN(CCCOc2ccc(C(=O)NCCCc3c[nH]c4ccc(Cl)cc34)cc2)CC1 [Example 143]
4. O=C1CCCN1CCCOc1ccc(S(=O)(=O)NCCCc2c[nH]c3ccccc23)cc1 [Example 44]
5. CCCCOc1ccc(S(=O)(=O)NCCc2ccc(N3CCOCC3)cc2)cc1 [Example 7]
6. O=S(=O)(NCCCc1c[nH]c2ccc(F)cc12)c1ccc(OCCCN2CCNCC2)cc1 [Example 61]
7. O=S(=O)(NCCCc1c[nH]c2ccc(Cl)cc12)c1ccc(Oc2cccc(N3CCC(O)CC3)c2)cc1 [Example 136]
8. CN1CCN(CCCOc2ccc(S(=O)(=O)NCC3CCc4[nH]c5ccc(F)cc5c4C3)cc2)CC1 (stereo not drawn) [Example 187]

Reply |
["> 100000 nM", "1000 to 10000 nM", "< 1000 nM", "> 100000 nM", "> 100000 nM", "< 1000 nM", "1000 to 10000 nM", "< 1000 nM"]

Here are 2 molecules. What values of IC50 were reported for them?
1. O=S(=O)(NCCCc1c[nH]c2ccc(Cl)cc12)c1ccc(OCCCN2CCCNCC2)cc1 [Example 102]
2. CN1CCN(c2cccc(Nc3ccc(S(=O)(=O)NCCCc4c[nH]c5ccc(Cl)cc45)cc3)c2)CC1 [Example 123]

Reply |
["< 1000 nM", "< 1000 nM"]

====

Could you please report measured IC50 for the items listed next?
- Tested on: A2780-SP cells (ovarian cancer stem cells)
- method notes: Sphere cell viability of A2780-SP cells (Cell-titer Glo)
- Format: cell-based
- condition notes: 192 h; sphere cell viability, culture for 8 days; read-out: A2780-SP

CN1CCN(CCCOc2ccc(C(=O)NCCCc3c[nH]c4ccc(Cl)cc34)cc2)CC1 | 1000 to 10000 nM
CN1CCN(CCCOc2ccc(S(=O)(=O)NCCCc3c[nH]c4ccc(Cl)cc34)cc2F)CC1 | < 1000 nM
CN1CCN(CCCOc2ccc(S(=O)(=O)NCC3CCc4[nH]c5ccccc5c4C3)cc2)CC1 (stereo not drawn) | < 1000 nM
O=S(=O)(NCCCc1c[nH]c2ccc(Cl)cc12)c1ccc(NCCCN2CCNCC2)cc1 | 1000 to 10000 nM
C[C@@H]1CN(CCCOc2ccc(S(=O)(=O)NCCCc3c[nH]c4ccc(Cl)cc34)cc2)CCN1 | < 1000 nM

So for O=S(=O)(NCCCc1c[nH]c2ncc(Cl)cc12)c1ccc(OCCCN2CCNCC2)cc1 , the logged IC50 turned out to be < 1000 nM

====

- tested target: Pin1 (Homo sapiens)
- Construct: purchased Anaspec
- method notes: Evaluation of Pin1 enzyme inhibitory activity (Sensolyte Green Pin1 assay kit)
- Assay type: biochemical
- condition notes: concentration at which the Pin1 enzyme activity is inhibited; 2 hours at room temperature, fluorescence 490 nm/520 nm; read-out: Pin 1 inhibition
measured quantity: IC50

C[C@H]1CN(CCCOc2ccc(S(=O)(=O)NCCCc3c[nH]c4ccc(Cl)cc34)cc2)CCN1 | < 1000 nM
O=S(=O)(NCCCc1c[nH]c2ccc(Cl)cc12)c1ccc(Nc2cccc(N3CCC(O)CC3)c2)cc1 | 1000 to 10000 nM
CCCCOc1ccc(S(=O)(=O)NCCc2c[nH]c3ccccc23)cc1 | > 100000 nM
CN(C)CCOc1ccc(S(=O)(=O)NCCCc2c[nH]c3ccccc23)cc1 | 10000 to 100000 nM
O=S(=O)(NCCCc1c[nH]c2ncc(Cl)cc12)c1ccc(OCCCN2CCNCC2)cc1 | < 1000 nM
O=S(=O)(NCCc1c[nH]c2ccc(Cl)cc12)c1ccc(OCCCN2CCNCC2)cc1 | < 1000 nM

Lab note: each compound below needs its IC50 filled in.
1. CCCCOc1ccc(S(=O)(=O)NCCCN2CCCC2=O)cc1
2. Cc1[nH]c2ccccc2c1CCNS(=O)(=O)c1ccc(OCCCN2CCN(C)CC2)cc1
3. O=S(=O)(NCCCc1c[nH]c2ccc(Cl)cc12)c1ccc(OCCCC2CCNCC2)cc1
4. O=S(=O)(NCCCc1c[nH]c2ccc(Cl)cc12)c1ccc(NCCCN2CCCCC2)cc1
5. CCCCOc1ccc(S(=O)(=O)NCCC(O)c2ccccc2)cc1 (centres unmarked)

Reply |
> 100000 nM
10000 to 100000 nM
< 1000 nM
< 1000 nM
10000 to 100000 nM

====

- tested target: Pin1 (Homo sapiens)
- Construct: purchased Anaspec
- method notes: Evaluation of Pin1 enzyme inhibitory activity (Sensolyte Green Pin1 assay kit)
- Format: biochemical
- condition notes: concentration at which the Pin1 enzyme activity is inhibited; 2 hours at room temperature, fluorescence 490 nm/520 nm; read-out: Pin 1 inhibition
pIC50: −log10 of the molar value.
measured quantity: pIC50

CN1CCCN(CCCOc2ccc(S(=O)(=O)NCCCc3c[nH]c4ccc(Cl)cc34)cc2)CC1 | > 6.00

Kindly give each listed record's pIC50.
1. O=S(=O)(NCCCc1c[nH]c2ccc(Cl)cc12)c1ccc(Nc2cccc(N3CCOCC3)c2)cc1
2. O=S(=O)(NCC1CCc2[nH]c3ccc(Cl)cc3c2C1)c1ccc(OCCCN2CCNCC2)cc1 (centres unmarked)
3. CN1CCCN(c2cccc(Oc3ccc(S(=O)(=O)NCCCc4c[nH]c5ccc(Cl)cc45)cc3)c2)CC1
4. O=S(=O)(NCCCc1c[nH]c2ccc(Cl)cc12)c1ccc(Nc2cc(N3CCNCC3)ccn2)cc1
5. O=S(=O)(NCCCc1c[nH]c2c(Cl)cc(Cl)cc12)c1ccc(OCCCN2CCNCC2)cc1

Reply |
5.00 to 6.00
> 6.00
5.00 to 6.00
> 6.00
> 6.00

Please state pIC50 for every molecule in the list that follows.
1. CN1CCN(c2ccc(Nc3ccc(S(=O)(=O)NCCCc4c[nH]c5ccc(Cl)cc45)cc3)cc2)CC1
2. O=S(=O)(NCCCc1c[nH]c2ccc(Cl)cc12)c1ccc(OCCCn2cnc(Cl)c2Cl)cc1
3. CN1CCN(CCCOc2ccc(S(=O)(=O)NCCCc3c[nH]c4ccc(Cl)cc34)cc2)CC1=O
4. CN1CCN(c2cc(Nc3ccc(S(=O)(=O)NCCCc4c[nH]c5ccc(Cl)cc45)cc3)nc(N3CCN(C)CC3)c2)CC1
5. CCCCOc1ccc(S(=O)(=O)NCCCc2c[nH]c3ccccc23)cc1

Reply |
1. 5.00 to 6.00
2. > 6.00
3. 5.00 to 6.00
4. > 6.00
5. 4.00 to 5.00
